# target_desc: human ether-à-go-go-related gene (hERG) potassium channel (human, UniProt Q12809)
# Sequence (Q12809 whole entry, looked up): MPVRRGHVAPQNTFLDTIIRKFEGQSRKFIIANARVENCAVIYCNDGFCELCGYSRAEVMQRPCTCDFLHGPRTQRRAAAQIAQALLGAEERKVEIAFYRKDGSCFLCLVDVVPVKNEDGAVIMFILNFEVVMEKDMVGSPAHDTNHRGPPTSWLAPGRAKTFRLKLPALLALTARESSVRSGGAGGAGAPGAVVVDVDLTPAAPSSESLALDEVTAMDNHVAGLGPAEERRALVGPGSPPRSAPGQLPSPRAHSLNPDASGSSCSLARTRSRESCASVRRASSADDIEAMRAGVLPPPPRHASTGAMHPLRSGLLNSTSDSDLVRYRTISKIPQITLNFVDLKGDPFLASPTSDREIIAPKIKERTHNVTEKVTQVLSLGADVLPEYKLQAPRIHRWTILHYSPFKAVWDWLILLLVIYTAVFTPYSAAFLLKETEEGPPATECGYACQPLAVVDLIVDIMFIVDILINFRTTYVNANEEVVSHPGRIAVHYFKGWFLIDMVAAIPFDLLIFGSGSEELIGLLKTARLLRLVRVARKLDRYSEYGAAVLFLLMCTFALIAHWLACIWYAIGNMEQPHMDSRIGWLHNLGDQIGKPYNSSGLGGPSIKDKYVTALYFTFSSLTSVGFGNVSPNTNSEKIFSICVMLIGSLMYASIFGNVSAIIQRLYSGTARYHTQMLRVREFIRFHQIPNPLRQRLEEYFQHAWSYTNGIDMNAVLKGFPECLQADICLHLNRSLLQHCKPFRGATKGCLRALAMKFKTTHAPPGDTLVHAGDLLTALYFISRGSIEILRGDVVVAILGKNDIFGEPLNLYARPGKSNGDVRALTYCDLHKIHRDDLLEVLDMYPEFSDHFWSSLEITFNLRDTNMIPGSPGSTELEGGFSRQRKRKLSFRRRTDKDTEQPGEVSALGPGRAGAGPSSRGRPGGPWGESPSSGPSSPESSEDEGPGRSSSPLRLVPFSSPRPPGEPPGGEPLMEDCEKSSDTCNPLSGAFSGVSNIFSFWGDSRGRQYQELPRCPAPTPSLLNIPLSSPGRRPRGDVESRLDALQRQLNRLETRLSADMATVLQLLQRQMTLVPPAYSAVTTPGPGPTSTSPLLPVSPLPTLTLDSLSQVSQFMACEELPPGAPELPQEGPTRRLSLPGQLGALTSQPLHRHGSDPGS
# assay_info: primary screen, population patch clamp on CHO cells stably expressing hERG; higher = less effect of the substance
The campaign covered roughly 310,000 compounds. About 14,000 (4.5%) showed an effect of 50% or more. Effects have a minus sign here. The sample holds strong results, similar compounds and a random draw of the others, so the mix is not that of the screen.
Property: hERG current change (%, negative = inhibition) at 10uM; scope: individual molecules
# value in %; strip the unit string

molecule	meas_value
O=C(c1ccc(Cl)nc1)N1CCN(C/C=C/c2ccccc2)CC1	-44.1
CN(C)S(=O)(=O)N1CCCC(C(=O)c2ccc(-c3ccccc3)c(F)c2)C1 (stereo not shown)	7.39
CCN(CC)C(=O)C1CCN(Cc2ccc(OCc3ccccc3)cc2)CC1.O=C(O)C(=O)O	-48.7
O=C(c1ccc(=O)n(Cc2ccccc2)n1)N1CCN(C/C=C/c2ccccc2)CC1	-51.9
CCCCC(=O)NC(=S)Nc1cc(C(=O)O)ccc1Cl	11.2

Input line: Which hERG current change (%, negative = inhibition) at 10uM is listed for Cn1cc(CN2CCCC(C(=O)c3ccc(-c4ccccc4)c(F)c3)C2)cn1 (stereo not shown) ?
Output line: -55.4

Input line: Give its hERG current change (%, negative = inhibition) at 10uM value. Item: C=CCN(CC=C)C(=O)C1CCN(Cc2ccc(OCc3ccccc3)cc2)CC1.O=C(O)C(=O)O
Output line: -68

---

# target_desc: human ether-à-go-go-related gene (hERG) potassium channel (human);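 further: peak tail current of the secondary pulse compared with the same well before compound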
# assay_info: primary screen, population patch clamp on CHO cells stably expressing hERG; higher = less effect of the substance
The whole screen tested about 310,000 compounds, of which about 14,000 (4.5%) showed an effect of 50% or more. Effects have a minus sign here. Shown is part of a subset that was picked to be rich in strong results.
Measured hERG current change (%, negative = inhibition) at 10uM of individual entries

Some solved cases for reference:
compound	meas_value
Cc1ccc(C(=O)OCC(=O)N2CCOCC2)cc1	15.6%
COc1ccc(-c2cc3ccccc3n2CC(O)CN2CCN(CCO)CC2)cc1 (stereo not shown)	-29.9%
CCCCN1C(N)=NC[C@@H]1c1ccccc1	-2.61%
COC(=O)C1=C(c2c(C)noc2C)C[C@@H]2CC[C@H]1N2C(=O)NCCO	20%
CCCCCCCN1C2=NCCCN2c2ccccc21.Cl	-58.5%
CCCCSc1nnc(CNC(=O)C23CC4CC(CC(C4)C2)C3)n1Cc1ccccc1	-29.7%

Input line: Fill blank: measured hERG current change (%, negative = inhibition) at 10uM of the compound CCOc1ccccc1NC(=O)Cc1cccs1 is ____.
Output line: 3.18%

Input line: Recorded hERG current change (%, negative = inhibition) at 10uM of COc1ccc(Nc2nc(-c3sc(N)nc3C)cs2)cc1 , please.
Output line: 8.32%

Input line: Which measured hERG current change (%, negative = inhibition) at 10uM value corresponds to Cc1ccc2c(CC(=O)NCC3(N4CCOCC4)CCCCC3)coc2c1C ?
Output line: -25.5%

Input line: Which hERG current change (%, negative = inhibition) at 10uM is reported for this compound? Br.CCCCN1C2=NCCCN2c2cc(C)c(C)cc21
Output line: -65.4%

Input line: // lookup hERG current change (%, negative = inhibition) at 10uM for Cc1nnc(NC(=O)CC(CN(C)S(=O)(=O)c2ccccc2)c2ccccc2)s1 (stereo not shown)
Output line: -18.7%

Input line: Fill in the blank: the reported hERG current change (%, negative = inhibition) at 10uM of Br.CCCCN1C2=NCCCN2c2ccccc21 is ____.
Output line: -54.5%

---

# target_desc: human ether-à-go-go-related gene (hERG) potassium channel (human, UniProt Q12809);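 further: peak tail current of the secondary pulse compared with the same well before compound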
# assay_info: primary screen, population patch clamp on CHO cells stably expressing hERG; higher = less effect of the substance
Among all 310,000 compounds or so, about 14,000 (4.5%) showed an effect of 50% or more. Effects have a minus sign here. The entries come from a sample that favours strong results as a whole.
Reported hERG current change (%, negative = inhibition) at 10uM by item:

Guide cases for hERG current change (%, negative = inhibition) at 10uM, answers given:
compound	target_desc	meas_value
COc1ccccc1CNCC(O)(c1ccc(Cl)cc1)c1ccc(Cl)cc1	human ether-à-go-go-related gene (hERG) potassium channel (human, UniProt Q12809)	-13.7%
O=C(CCCN1C(=O)c2ccccc2C1=O)N1CCC(c2ccccc2)C1 (stereo not drawn)	human ether-à-go-go-related gene (hERG) potassium channel (human, UniProt Q12809)	-58.6%
O=C(CCN1C(=O)c2ccccc2C1=O)N1CCC(c2ccccc2)C1 (stereo not drawn)	human ether-à-go-go-related gene (hERG) potassium channel (human, UniProt Q12809)	-43%
Cc1ccc(NC(=O)N2CCCc3ccccc32)cc1	human ether-à-go-go-related gene (hERG) potassium channel (human, UniProt Q12809)	-6.25%
Cc1ccc(CNCC(O)(c2ccccc2)c2ccccc2)cc1	human ether-à-go-go-related gene (hERG) potassium channel (human, UniProt Q12809)	-33%
COc1ccccc1N1CCN(C(=O)Cn2c(=O)[nH]c3ccsc3c2=O)CC1	human ether-à-go-go-related gene (hERG) potassium channel (human, UniProt Q12809)	-1.18%

Input line: What measured hERG current change (%, negative = inhibition) at 10uM is associated with O=C1C=C(O)CC(c2ccco2)C1 (stereo not drawn) on human ether-à-go-go-related gene (hERG) potassium channel (human, UniProt Q12809)?
Output line: 9.75%

Input line: What is its hERG current change (%, negative = inhibition) at 10uM for human ether-à-go-go-related gene (hERG) potassium channel (human, UniProt Q12809)? Entry: COc1ccc(CNCC(O)(c2ccccc2)c2ccc(F)cc2)cc1OC (stereo not drawn)
Output line: -61.2%

Input line: Request body: readout hERG current change (%, negative = inhibition) at 10uM, system human ether-à-go-go-related gene (hERG) potassium channel (human, UniProt Q12809), query O=C(/C=C/c1ccc(F)cc1)N1CCCN(C(=O)/C=C/c2ccc(F)cc2)CC1 . Return the value.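 Further: peak tail current of the secondary pulse compared with the same well before compound.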
Output line: -75.6%

Input line: Recorded hERG current change (%, negative = inhibition) at 10uM for CC(=O)N1CCc2cc(S(=O)(=O)NCCC(=O)Nc3cccc(C)c3C)ccc21 with human ether-à-go-go-related gene (hERG) potassium channel (human, UniProt Q12809), please?
Output line: 0.058%

Input line: What reported hERG current change (%, negative = inhibition) at 10uM corresponds to O=C(Nc1ccccc1)N1CCCc2ccccc21 on human ether-à-go-go-related gene (hERG) potassium channel (human, UniProt Q12809)?
Output line: -79.2%

Input line: Recall the recorded hERG current change (%, negative = inhibition) at 10uM for CCN1CCN(C(=O)/C=C/c2ccc(F)cc2)CC1 with human ether-à-go-go-related gene (hERG) potassium channel (human, UniProt Q12809) and state it.
Output line: -43.2%

---

# target_desc: human ether-à-go-go-related gene (hERG) potassium channel (human);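 further: peak tail current of the secondary pulse compared with the same well before compound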
# assay_info: primary screen, population patch clamp on CHO cells stably expressing hERG; higher = less effect of the substance
# Protocol: Briefly, Chinese hamster ovary (CHO) cells stably expressing the hERG channel were dislodged from tissue culture flasks and dispensed into PPC plates. […] During the recording, background leak currents were estimated by a 100 ms step to -80 mV from an initial holding potential of -70 mV and subtracted from the subsequent current measurement. The campaign was conducted in two phases using slight differences in recording protocol. […]
Among all 310,000 compounds or so, about 14,000 (4.5%) showed an effect of 50% or more. The effect is printed as a negative number. The sample holds strong results, similar compounds and a random draw of the others, so the mix is not that of the screen.
measurement_kind: hERG current change (%, negative = inhibition) at 10uM (%)
Respond with the bare value in %.

Some entries whose results are on file:
compound	target_desc	meas_value
CCOC(=O)c1cnn(-c2ccccc2)c1NC(=O)CN1CCOCC1	human ether-à-go-go-related gene (hERG) potassium channel (human)	16.1
COc1ccc(C(=O)Nc2ccc3nc(N4CCCCC4)cc(C)c3c2)c(OC)c1	human ether-à-go-go-related gene (hERG) potassium channel (human)	4.06
CCCn1cnc2cc(NCc3ccc(Br)cc3)ccc21	human ether-à-go-go-related gene (hERG) potassium channel (human)	-73.9

Input line: Return reported hERG current change (%, negative = inhibition) at 10uM; argument: CN(CC(=O)Nc1ccc(S(=O)(=O)N2CCCC2)cc1)Cc1ccc(Cl)cc1Cl
Output line: 10.8

Input line: For the compound COC(=O)C1C(=O)C2=C(CC1C)Nc1ccccc1NC2c1ccc(C)s1 (centres unmarked) , what hERG current change (%, negative = inhibition) at 10uM is on record?
Output line: 12.8

Input line: Any idea what its hERG current change (%, negative = inhibition) at 10uM is? The compound is Cc1oncc1C(=O)Nc1cccc(C#N)c1
Output line: 4.43

Input line: Record request: hERG current change (%, negative = inhibition) at 10uM value, item O=C(OCC(=O)N1CCN(C(=O)c2ccco2)CC1)c1ccccc1C(=O)c1ccccc1
Output line: -34

Input line: Bench note: what hERG current change (%, negative = inhibition) at 10uM did CCCOc1ccc(C(C)=O)cc1CSc1nc(O)cc(=O)[nH]1 show?
Output line: 14.4

Input line: Record request: hERG current change (%, negative = inhibition) at 10uM value, item CN(CC(=O)Nc1ccc(N2CCOCC2)cc1)CC(=O)Nc1cccc(C#N)c1
Output line: -13.9

Input line: // returns reported hERG current change (%, negative = inhibition) at 10uM for input Cc1ccccc1S(=O)(=O)N(CC(O)CN1CCCCC1)c1ccccc1 (centres unmarked)
Output line: -71.7

Input line: # get_value(readout='hERG current change (%, negative = inhibition) at 10uM', item= Cc1nc2cc3nc(C(F)(F)F)[nH]c3cc2[nH]1 )
Output line: 0.0754

Input line: Param item = Cc1nc(SCC(=O)NC2CCCC2)c2c(C)c(C)sc2n1 ; retrieve measured hERG current change (%, negative = inhibition) at 10uM.
Output line: -4.48

Input line: Request the reported hERG current change (%, negative = inhibition) at 10uM associated with CCCCn1cnc2cc(NCc3cccc(OC)c3O)ccc21
Output line: -51.2

Input line: Can you share its hERG current change (%, negative = inhibition) at 10uM? I mean this compound: Cc1nc2cc(NCc3ccc(Cl)cc3)ccc2n1C
Output line: -70.6

Input line: Fill in: hERG current change (%, negative = inhibition) at 10uM of Clc1ccc(CO/N=C/c2cccs2)cc1 is ___
Output line: 12.4

Input line: Suppose we examine the compound CN(CC(=O)Nc1ccc(Cl)cc1)CC(=O)Nc1cc(Cl)ccc1C#N ; what hERG current change (%, negative = inhibition) at 10uM value has been reported?
Output line: -38.4

Input line: Recorded hERG current change (%, negative = inhibition) at 10uM of Cc1ccc(NC(=O)CN(C)Cc2ccc(Cl)cc2)cc1 , please.
Output line: -8.48

Input line: // query hERG current change (%, negative = inhibition) at 10uM value for entry O=C(OCC(=O)N1CCN(C(=O)c2ccco2)CC1)c1ccccc1C(=O)c1ccc(Cl)cc1
Output line: -64.8

Input line: Returns the measured hERG current change (%, negative = inhibition) at 10uM for the input compound. Input: CN(CC(=O)Nc1ccc(C#N)cc1)Cc1ccc(Cl)cc1Cl
Output line: -66.8
